B1: CDC25B (parent)
chain: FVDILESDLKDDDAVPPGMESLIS

- Variants of: B1
- PROTOCOL_NOTES: protein stability index of a GFP-peptide fusion (GPS, HEK-293T) (PSI 1-6); higher = more stable;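 further: lentivirally expressed fusions sorted by FACS into six bins by GFP to DsRed ratio, PSI derived from sequencing read proportions per bin multiplied by bin number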
- ASSAY_CONDITIONS: c terminus: a fixed tail appended
REPORTED_PROPERTY: protein stability index
One number for each entry.

Here are 5 variants together with their reported answers.
G18M: 2.6
S24N: 2.85
D3I: 2.75
P16A: 2.98
L22K: 2.99

Report protein stability index for each item below.
1. V2E
2. G18H
3. L22Y
4. I23T
5. I4N
6. E6W

OUT:
1. 5.29
2. 3.11
3. 2.47
4. 2.91
5. 4.34
6. 2.32

Origin of values: the supplement of paper PMC10567573
